B1: tRNA (parent)
chain: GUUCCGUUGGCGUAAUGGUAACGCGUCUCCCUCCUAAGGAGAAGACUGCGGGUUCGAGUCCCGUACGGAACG

Variants of: B1
experiment.notes: yeast fitness relative to wild type (ratio to wild type); higher = fitter; tRNA-Arg(CCU), competitive growth, 37 C, YPD
This sample holds only a part of the variants without activity.
observable: yeast fitness
One number for each entry.

# variant.label, yeast fitness
records = [
    ("U3A C5A G23A G68U", 0.816),
]

I'm hoping you can list yeast fitness for every variant here, please.
1. G67U
2. C11G C34U C55G
3. C34U C66G

## Result
[0.918, 0.689, 0.56]

I'm hoping you can list yeast fitness for every variant here, please.
1. C11A A15G C49U
2. C24A C60U C61G G67A
3. C22A C27G G41A C62A
4. C11G C24G C27A U28C A65U
5. C30G G50U C66U
6. A21U A70U

## Result
[0.55, 0.614, 0.655, 0.533, 0.573, 0.754]
